# Tested on: EPHB1 (UniProt P54762)
# Sequence (P54762 whole entry, looked up): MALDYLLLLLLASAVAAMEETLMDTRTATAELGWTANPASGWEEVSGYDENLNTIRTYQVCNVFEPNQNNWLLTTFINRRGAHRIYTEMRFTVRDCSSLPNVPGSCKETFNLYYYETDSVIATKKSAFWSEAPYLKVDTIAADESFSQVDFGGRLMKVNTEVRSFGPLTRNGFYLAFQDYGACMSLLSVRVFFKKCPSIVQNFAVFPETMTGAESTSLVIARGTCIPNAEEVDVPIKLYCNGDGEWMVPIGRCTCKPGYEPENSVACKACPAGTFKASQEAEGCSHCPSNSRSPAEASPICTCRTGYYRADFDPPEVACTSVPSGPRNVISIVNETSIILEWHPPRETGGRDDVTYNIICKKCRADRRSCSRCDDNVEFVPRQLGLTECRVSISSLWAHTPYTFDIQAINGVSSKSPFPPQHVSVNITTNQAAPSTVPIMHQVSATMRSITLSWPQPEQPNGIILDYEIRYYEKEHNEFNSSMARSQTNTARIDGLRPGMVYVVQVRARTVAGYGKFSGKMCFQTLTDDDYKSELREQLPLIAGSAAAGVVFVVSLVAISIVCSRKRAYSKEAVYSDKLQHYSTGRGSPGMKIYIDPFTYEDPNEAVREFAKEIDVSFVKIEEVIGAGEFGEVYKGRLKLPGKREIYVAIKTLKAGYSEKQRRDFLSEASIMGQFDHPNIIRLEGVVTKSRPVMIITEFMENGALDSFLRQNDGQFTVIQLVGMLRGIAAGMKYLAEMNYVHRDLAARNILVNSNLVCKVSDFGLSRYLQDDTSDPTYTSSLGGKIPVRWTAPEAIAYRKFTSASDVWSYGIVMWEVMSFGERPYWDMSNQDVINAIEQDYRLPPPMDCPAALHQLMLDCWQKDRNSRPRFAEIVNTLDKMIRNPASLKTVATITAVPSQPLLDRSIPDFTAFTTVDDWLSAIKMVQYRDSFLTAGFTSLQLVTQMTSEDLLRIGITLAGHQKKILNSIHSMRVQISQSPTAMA
# Procedure details: phosphorylation enrichment, bacterial display (enrichment ratio); higher = better substrate or ligand; peptides without Tyr show the background
phosphorylation enrichment reference
The answer should be written as a number, with no unit following it.

Here's what some known entries look like.
[ask] Provide one value: measured phosphorylation enrichment of GTQCSYLLSRK [UGT3A1_Y123]
[reply] 0.427

[ask] Provide one value: measured phosphorylation enrichment of FHIDHYLGKEM [G6PD_Y202_R198H_YF]
[reply] 0.438

[ask] Provide one value: measured phosphorylation enrichment of ITLPIYTKGSE [ANK2_Y1455_E1458G]
[reply] 0.599

[ask] Provide one value: measured phosphorylation enrichment of NKEPRYQEDPP [TJP2_Y479]
[reply] 0.525

[ask] Provide one value: measured phosphorylation enrichment of VAFLFYKSIGP [ADGRL4_Y302_V300L_YF]
[reply] 0.689

[ask] Provide one value: measured phosphorylation enrichment of GIVKAYYVHAR [AIPL1_Y267_R270H]
[reply] 0.498

[ask] Provide one value: measured phosphorylation enrichment of HNELFYEAAEH [VANGL1_Y345_E347A_YF]
[reply] 0.586

[ask] Provide one value: measured phosphorylation enrichment of GGSTFYIDTNA [ACTL6A_Y69_P66S_YF]
[reply] 0.523

[ask] Provide one value: measured phosphorylation enrichment of FVTSMYNEILM [TRPV1_Y310]
[reply] 0.765

[ask] Provide one value: measured phosphorylation enrichment of RRSQSYIPTSG [PLEKHA2_Y185]
[reply] 0.372

Others:
[ask] Provide one value: measured phosphorylation enrichment of FAFQLYDLDPD [CHP2_Y123_R127P_YF]
[reply] 0.981

[ask] Provide one value: measured phosphorylation enrichment of "ANNEFYFRVCA"
[reply] 0.563

[ask] Provide one value: measured phosphorylation enrichment of EMTAEYACTRK [ACAD9_Y325]
[reply] 0.406

[ask] Provide one value: measured phosphorylation enrichment of LIQRNYKLAAQ [ALPK2_Y1975]
[reply] 1.13

[ask] Provide one value: measured phosphorylation enrichment of SAEEDYKADAK [KCNT1_Y876_M877K]
[reply] 0.635

[ask] Provide one value: measured phosphorylation enrichment of PEVSGYCHFAD [TG_Y234_C237Y_YF]
[reply] 0.745

---

# Tested on: Grb2 SH2 (UniProt P62993)
# Sequence (P62993 whole entry, looked up): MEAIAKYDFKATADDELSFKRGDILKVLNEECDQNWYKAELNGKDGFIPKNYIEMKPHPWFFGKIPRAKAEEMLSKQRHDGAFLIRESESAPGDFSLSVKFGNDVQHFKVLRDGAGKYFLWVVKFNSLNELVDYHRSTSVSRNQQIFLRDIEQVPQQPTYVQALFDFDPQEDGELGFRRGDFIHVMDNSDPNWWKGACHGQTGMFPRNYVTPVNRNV
# Procedure details: SH2 binding enrichment of the phosphorylated peptide, bacterial display (enrichment ratio); higher = better substrate or ligand; peptides without Tyr show the background
SH2 binding enrichment reference
The answer should be written as a number, with no unit following it.

[ask] Provide one value: measured SH2 binding enrichment of CTTIHYNYMCI [TP53_Y234_N239I]
[reply] 1.87

[ask] Provide one value: measured SH2 binding enrichment of EVLKNYNQQKD [GOLGA4_Y1551]
[reply] 0.608

[ask] Provide one value: measured SH2 binding enrichment of IRQDHYESLKE [MTR_Y921]
[reply] 0.961

[ask] Provide one value: measured SH2 binding enrichment of GDFFRYLAEVA [YWHAG_Y133_YF]
[reply] 0.763

[ask] Provide one value: measured SH2 binding enrichment of ERDYTYDELLN [EIF2S2_Y176_E177D]
[reply] 0.786

[ask] Provide one value: measured SH2 binding enrichment of ESAAIYNPVIF [RHO_Y301_K296E_YF]
[reply] 0.848

[ask] Provide one value: measured SH2 binding enrichment of EFNLMYDGTKE [IRF6_Y97]
[reply] 0.883

[ask] Provide one value: measured SH2 binding enrichment of QRRFVYFFSFL [PTEN_Y176_YF]
[reply] 1.13

[ask] Provide one value: measured SH2 binding enrichment of EKLQQYLAPGM [EPHB3_Y600_I601L]
[reply] 0.745

[ask] Provide one value: measured SH2 binding enrichment of LHQSTYQCYDV [SLC7A14_Y693_R695C]
[reply] 0.756

Please find the next sequence below.
[ask] Provide one value: measured SH2 binding enrichment of QWRTKYETDTI [MYH7_Y1375_A1379T]
[reply] 0.769

---

# Test system: AncSZ
# Procedure details: phosphorylation enrichment, bacterial display (enrichment ratio); higher = better substrate or ligand; peptides without Tyr show the background
Classify by measured phosphorylation enrichment: met if it is equal to or exceeds 1, not met if it is smaller.

[ask] Threshold query (phosphorylation enrichment >= 1) on YETDYYQKGGK [INSR_Y1190_R1191Q]
[reply] met

Others:
[ask] Threshold query (phosphorylation enrichment >= 1) on EASGIYVKSVI [PATJ_Y396_I400V]
[reply] not met

[ask] Threshold query (phosphorylation enrichment >= 1) on LSDGPYSSPFE [EPOR_Y485_N487S_YF]
[reply] met

---

# Tested on: c-Src
# Procedure details: phosphorylation enrichment, bacterial display (enrichment ratio); higher = better substrate or ligand; peptides without Tyr show the background
Measurement label: phosphorylation enrichment
The answer should be written as a number, with no unit following it.

Here's what some known entries look like.
[ask] Provide one value: measured phosphorylation enrichment of EICTQYEAMAS [GFAP_Y242_R239C]
[reply] 0.601

[ask] Provide one value: measured phosphorylation enrichment of GFDHSYFFIAT [ESD_Y262_YF]
[reply] 0.558

[ask] Provide one value: measured phosphorylation enrichment of SSREEYFIGGG [GYPC_Y126_K124E]
[reply] 0.655

[ask] Provide one value: measured phosphorylation enrichment of APQFTYAQGGQ [FLNA_Y1763_YF]
[reply] 0.538

[ask] Provide one value: measured phosphorylation enrichment of WGLRSYYETSK [MAGED2_Y448]
[reply] 0.298

[ask] Provide one value: measured phosphorylation enrichment of SSYDTYHLSRE [KIR3DL2_Y253_I252T]
[reply] 3.69

[ask] Provide one value: measured phosphorylation enrichment of "IAKNPYDPPGR"
[reply] 0.38

[ask] Provide one value: measured phosphorylation enrichment of WPQKLYNNFVN [MYO5C_Y526_L522P]
[reply] 0.626

Others:
[ask] Provide one value: measured phosphorylation enrichment of EVVGGYSVHNA [MLH1_Y183_R182G]
[reply] 0.336

[ask] Provide one value: measured phosphorylation enrichment of GEKKAYVRLAP [RPL23A_Y137]
[reply] 0.296

[ask] Provide one value: measured phosphorylation enrichment of QLQTTYPSSDN [MAX_Y115_N114T]
[reply] 0.556

[ask] Provide one value: measured phosphorylation enrichment of KTGNIYRTEFG [MRPL3_Y265_M261T_YF]
[reply] 0.349

[ask] Provide one value: measured phosphorylation enrichment of LEKISYVYMKR [SSX7_Y48]
[reply] 0.547

[ask] Provide one value: measured phosphorylation enrichment of CTHDLYMFMRE [FGFR3_Y724_I726F]
[reply] 2.37

[ask] Provide one value: measured phosphorylation enrichment of SVTCTYSSALN [TP53_Y126_P128S]
[reply] 0.64

[ask] Provide one value: measured phosphorylation enrichment of PFADPYFDFEI [ZC3H18_Y371_YF]
[reply] 4.46

[ask] Provide one value: measured phosphorylation enrichment of QTPVLYAMLDH [MPZ_Y220]
[reply] 4.54

[ask] Provide one value: measured phosphorylation enrichment of KYVKMYDNHQL [MYO9A_Y203]
[reply] 0.418

[ask] Provide one value: measured phosphorylation enrichment of KLGDVYVNVAF [PGK1_Y161_D164V]
[reply] 0.584

[ask] Provide one value: measured phosphorylation enrichment of QRKRAYVEIEY [MAK16_Y282]
[reply] 0.68

[ask] Provide one value: measured phosphorylation enrichment of EVASVYESYQP [MAVS_Y92_Q93E]
[reply] 5.67

[ask] Provide one value: measured phosphorylation enrichment of MAALSYVSEIG [BPIFB2_Y36_K31M]
[reply] 0.431

[ask] Provide one value: measured phosphorylation enrichment of PEVSGYCHFAD [TG_Y234_C237Y_YF]
[reply] 0.572

---

phosphorylation enrichment reference
# Tested on: FGFR1 (UniProt P11362)
# Sequence (P11362 whole entry, looked up): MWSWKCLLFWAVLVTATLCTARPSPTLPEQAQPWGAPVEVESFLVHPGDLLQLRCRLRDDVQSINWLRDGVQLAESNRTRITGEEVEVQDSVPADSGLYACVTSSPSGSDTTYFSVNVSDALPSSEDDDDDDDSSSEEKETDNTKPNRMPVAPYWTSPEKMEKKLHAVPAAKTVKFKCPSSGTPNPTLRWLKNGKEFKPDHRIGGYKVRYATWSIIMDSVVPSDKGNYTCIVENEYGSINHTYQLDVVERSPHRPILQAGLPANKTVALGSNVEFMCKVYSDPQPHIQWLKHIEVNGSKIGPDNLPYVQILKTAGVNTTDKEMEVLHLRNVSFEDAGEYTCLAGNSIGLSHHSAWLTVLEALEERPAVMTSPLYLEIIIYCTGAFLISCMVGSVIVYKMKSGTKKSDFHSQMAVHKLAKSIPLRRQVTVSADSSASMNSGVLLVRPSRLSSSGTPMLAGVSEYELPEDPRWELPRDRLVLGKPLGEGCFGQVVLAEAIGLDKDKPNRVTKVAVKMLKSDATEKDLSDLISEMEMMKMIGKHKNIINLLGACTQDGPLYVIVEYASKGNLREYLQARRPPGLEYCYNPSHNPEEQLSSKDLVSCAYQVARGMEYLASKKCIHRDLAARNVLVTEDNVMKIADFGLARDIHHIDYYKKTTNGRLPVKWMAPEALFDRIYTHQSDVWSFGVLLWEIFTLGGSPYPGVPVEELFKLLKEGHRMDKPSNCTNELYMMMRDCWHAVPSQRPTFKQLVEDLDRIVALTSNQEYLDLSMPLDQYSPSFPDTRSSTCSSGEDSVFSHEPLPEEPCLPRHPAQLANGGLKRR
# Procedure details: phosphorylation enrichment, bacterial display (enrichment ratio); higher = better substrate or ligand; peptides without Tyr show the background
The answer should be written as a number, with no unit following it.

[ask] Enter measured phosphorylation enrichment, system FGFR1 (UniProt P11362), for the sequence shown: IRQDHYESLKE [MTR_Y921]
[reply] 0.45

[ask] Enter measured phosphorylation enrichment, system FGFR1 (UniProt P11362), for the sequence shown: HEGKIYEYNQV [ZNF665_Y162]
[reply] 0.746

[ask] Enter measured phosphorylation enrichment, system FGFR1 (UniProt P11362), for the sequence shown: ALSDGYWVVSN [TPP1_Y459]
[reply] 1.32

[ask] Enter measured phosphorylation enrichment, system FGFR1 (UniProt P11362), for the sequence shown: RLQEDYDHSYY [ESD_Y258_G257D]
[reply] 0.923

[ask] Enter measured phosphorylation enrichment, system FGFR1 (UniProt P11362), for the sequence shown: LHQSTYQCYDV [SLC7A14_Y693_R695C]
[reply] 1.12

[ask] Enter measured phosphorylation enrichment, system FGFR1 (UniProt P11362), for the sequence shown: ALAHKHHGGGG [HBB_Y146_Y146H]
[reply] 0.355

[ask] Enter measured phosphorylation enrichment, system FGFR1 (UniProt P11362), for the sequence shown: RRFSSYSQMEN [PKP1_Y120]
[reply] 1.34

[ask] Enter measured phosphorylation enrichment, system FGFR1 (UniProt P11362), for the sequence shown: GFEVVYMTEPI [HSP90AB1_Y512]
[reply] 0.625

[ask] Enter measured phosphorylation enrichment, system FGFR1 (UniProt P11362), for the sequence shown: LSQDVYEEDSY [RET_Y900_R897Q]
[reply] 0.695

[ask] Enter measured phosphorylation enrichment, system FGFR1 (UniProt P11362), for the sequence shown: FHIDHYLGKEM [G6PD_Y202_R198H_YF]
[reply] 0.53
